This collection of values is drawn from paper PMC4835091.

B1: FtsZ (purified, WT) [E. coli] / itself (parent)
chain: MFEPMELTNDAVIKVIGVGGGGGNAVEHMVRERIEGVEFFAVNTDAQALRKTAVGQTIQIGSGITKGLGAGANPEVGRNAADEDRDALRAALEGADMVFIAAGMGGGTGTGAAPVVAEVAKDLGILTVAVVTKPFNFEGKKRMAFAEQGITELSKHVDSLITIPNDKLLKVLGRGISLLDAFGAANDVLKGAVQGIAELITRPGLMNVDFADVRTVMSEMGYAMMGSGVASGEDRAEEAAEMAISSPLLEDIDLSGARGVLVNITAGFDLRLDEFETVGNTIRAFASDNATVVIGTSLDPDMNDELRVTVVATGIGMDKRPEITLVTNKQVQQPVMDRYQQHGMAPLTQEQKPVAKVVNDNAPQTAKEPDYLDIPAFLRKQAD

Variants of: B1
experiment: sedimentation (co-pelleting) assay, SDS-PAGE quantification
testContext: with itself; 5 µM FtsZ with ZapD at 1:0.2; 50 mM K-MOPS pH 6.5, 50 mM KCl, 2.5 mM MgCl2, 1 mM GTP, 3 µM BSA; read off a plot
response (% FtsZ in pellet) for assorted variants
Please give only the number in your answer, with no unit.

Study these solved cases before continuing.
mutationLabel: chain 1 K380D D383K
response (% FtsZ in pellet): 43
--
mutationLabel: chain 1 K380Q A382Q D383Q
response (% FtsZ in pellet): 43
--
mutationLabel: chain 1 K380D
response (% FtsZ in pellet): 29

# input Form field: reported response (% FtsZ in pellet) of chain 1 D383K
# output 45

# input Form field: reported response (% FtsZ in pellet) of chain 1 K380R D383R
# output 39
